- Measured target: IRAK4 (Homo sapiens (Human))
- Procedure text: IRAK4 Degradation HiBiT Assay
- Setup conditions: Jurkat, read-out: Cellular IRAK4 HiBiT: Dmax, Table 4; HiBiT-tagged Jurkat cells, 4 hrs
- Sequence (Q9NWZ3 whole entry): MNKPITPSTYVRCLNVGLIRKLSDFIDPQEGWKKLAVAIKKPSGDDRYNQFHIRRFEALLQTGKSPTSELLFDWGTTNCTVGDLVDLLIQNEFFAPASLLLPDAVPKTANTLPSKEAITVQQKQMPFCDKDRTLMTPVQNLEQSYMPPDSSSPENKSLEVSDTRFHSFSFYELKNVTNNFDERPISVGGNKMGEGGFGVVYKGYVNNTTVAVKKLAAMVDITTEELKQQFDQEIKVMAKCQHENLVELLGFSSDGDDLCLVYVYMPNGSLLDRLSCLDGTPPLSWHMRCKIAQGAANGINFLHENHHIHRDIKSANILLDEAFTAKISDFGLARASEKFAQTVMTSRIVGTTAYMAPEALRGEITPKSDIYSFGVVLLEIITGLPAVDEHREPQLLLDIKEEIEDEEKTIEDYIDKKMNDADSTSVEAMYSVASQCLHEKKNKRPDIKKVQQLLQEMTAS
Recorded metric: Dmax (%)

Compound	Measured target	Dmax, %
CNc1cc(-c2ccc3cc(C#N)cnn23)ncc1-c1nnc([C@H]2CC[C@H](NC(=O)CN3CCC4(CC3)CN(c3ccc5c(c3)C(=O)N(C3CCC(=O)NC3=O)C5=O)C4)CC2)s1 (stereo partly shown) [Example 64]	IRAK4 (Homo sapiens (Human))	110
CC(C)Nc1cc(-c2ccc3cc(C#N)cnn23)ncc1-c1nnc(N2CCN(CC3CCN(c4ccc(C(=O)N(C)C5CCC(=O)NC5=O)cc4)CC3)CC2)s1 (stereo not shown) [Example 34]	IRAK4 (Homo sapiens (Human))	85
CN[C@@H](C)C(=O)N[C@H](C(=O)N1C[C@@H](NC(=O)CCCCCCC(=O)N2CCN(c3nnc(-c4cnc(-c5ccc6cc(C#N)cnn56)cc4NC(C)C)s3)CC2)C[C@H]1C(=O)N[C@@H]1CCCc2ccccc21)C1CCCCC1 [Example 52]	IRAK4 (Homo sapiens (Human))	70

1. Cc1ncsc1-c1ccc(CNC(=O)[C@@H]2C[C@@H](O)CN2C(=O)[C@@H](NC(=O)C2(F)CC2)C(C)(C)C)c(OCCCCCCCCCC(=O)N2CCN(c3nnc(-c4cnc(-c5ccc6cc(C#N)cnn56)cc4NC(C)C)s3)CC2)c1 [Example 44]
2. CC(C)Nc1cc(-c2ccc3cc(C#N)cnn23)ncc1-c1nnc(N2CCN(C(=O)C3CCN(c4ccc5c(c4)C(=O)N(C4CCC(=O)NC4=O)C5=O)CC3)CC2)s1 (stereo not shown) [Example 23]
## Task // max by Dmax over [ 1 , 2 ] Give the label of your selection.
## Result 2
(2: 97%, 1: 33%)

###

- Measured target: UniProtKB Q9NWZ3
- Procedure text: IRAK4 Degradation HiBiT Assay
- Setup conditions: Jurkat, read-out: Cellular IRAK4 HiBiT: Dmax, Table 5; multiple runs; HiBiT-tagged Jurkat cells, 4 hrs
Recorded metric: Dmax (%)

Molecule	Units label	Dmax
CNc1cc(-c2ccc3cc(C#N)cnn23)ncc1-c1nnc([C@H]2CC[C@H](N(C)C[C@@H]3CCN(c4ccc5c(c4)C(=O)N(C4CCC(=O)NC4=O)C5=O)C3)CC2)s1 (stereo partly drawn)	%	77
CC(C)Nc1cc(-c2ccc3cc(C#N)cnn23)ncc1-c1nnc(N2CCC3(CCN(C(=O)c4ccc5c(c4)C(=O)N(C4CCC(=O)NC4=O)C5)CC3)CC2)s1 (stereo not drawn)	%	70
CNc1cc(-c2ccc3cc(C#N)cnn23)ncc1-c1nnc(C23CCC(NC(=O)CC(C)(C)C(=O)N[C@H](C(=O)N4C[C@H](O)C[C@H]4C(=O)N[C@@H](C)c4ccc(-c5scnc5C)cc4)C(C)(C)C)(CC2)CC3)s1	%	90
N#Cc1cnn2c(-c3cc(NC4CCOCC4)c(-c4nnc(C56CCC(NC(=O)CCOCCOCCOCCNc7cccc8c7C(=O)N(C7CCC(=O)NC7=O)C8=O)(CC5)CC6)s4)cn3)ccc2c1 (stereo not drawn)	%	75
CNc1cc(-c2ccc3cc(C#N)cnn23)ncc1-c1nnc([C@H]2CC[C@@H](NC(=O)CCCCCNc3ccc4c(c3)C(=O)N(C3CCC(=O)NC3=O)C4=O)CC2)s1 (stereo partly drawn)	%	82
Cc1ncsc1-c1ccc(CNC(=O)[C@@H]2C[C@@H](O)CN2C(=O)[C@@H](NC(=O)C2(F)CC2)C(C)(C)C)c(OCCCC(=O)N2CCN(c3nnc(-c4cnc(-c5ccc6cc(C#N)cnn56)cc4NC(C)C)s3)CC2)c1	%	113
CNc1cc(-c2ccc3cc(C#N)cnn23)ncc1-c1nnc(N2CC3CCC(C2)N3C2CCN(C(=O)Cc3ccc4c(c3)CN(C3CCC(=O)NC3=O)C4=O)CC2)s1 (stereo not drawn)	%	109
CC(C)Nc1cc(-c2ccc3cc(C#N)cnn23)ncc1-c1nnc(N2CCC3(CCN(Cc4ccc5c(c4)C(=O)N(C4CCC(=O)NC4=O)C5=O)CC3)CC2)s1 (stereo not drawn)	%	81
CNc1cc(-c2ccc3cc(C#N)cnn23)ncc1-c1nnc(N2CCC(C3CCN(C(=O)c4ccc5c(c4)C(=O)N(C4CCC(=O)NC4=O)C5=O)CC3)CC2)s1 (stereo not drawn)	%	96

###

- Measured target: IRAK4 (Homo sapiens (Human), UniProt Q9NWZ3)
- Procedure text: IRAK4 Degradation HiBiT Assay
- Setup conditions: Jurkat, read-out: Cellular IRAK4 HiBiT: Dmax, Table 5; multiple runs; HiBiT-tagged Jurkat cells, 4 hrs
Recorded metric: Dmax (%)

Compound	Dmax, %
CNc1cc(-c2ccc3cc(C#N)cnn23)ncc1-c1nnc([C@H]2CC[C@H](NC(=O)CCOCCC(=O)N[C@H](C(=O)N3C[C@H](O)C[C@H]3C(=O)N[C@@H](C)c3ccc(-c4scnc4C)cc3)C(C)(C)C)CC2)s1	121
CC(C)Nc1cc(-c2ccc3cc(C#N)cnn23)ncc1-c1nnc(N2CCN(C(=O)C3CCN(CC4CCN(c5ccc(-c6nn(C7CCC(=O)NC7=O)c(=O)n6C)cc5)CC4)CC3)CC2)s1 (centres unmarked)	112
CC(C)Nc1cc(-c2ccc3cc(C#N)cnn23)ncc1-c1nnc(N2CCN(C(=O)C3CCN(c4ccc5c(c4)C(=O)N(C4CCC(=O)NC4=O)C5=O)CC3)CC2)s1 (centres unmarked)	108
CNc1cc(-c2ccc3cc(C#N)cnn23)ncc1-c1nnc([C@H]2CC[C@H](NC(=O)C[C@H](NC(=O)[C@@H]3C[C@@H](O)CN3C(=O)[C@@H](NC(=O)C3(F)CC3)C(C)(C)C)c3ccc(-c4scnc4C)cc3)CC2)s1	118
CNc1cc(-c2ccc3cc(C#N)cnn23)ncc1-c1nnc(C23CCC(NC(=O)CN4CCC5(CC4)CN(c4ccc6c(c4)C(=O)N(C4CCC(=O)NC4=O)C6=O)C5)(CC2)CC3)s1 (centres unmarked)	77
CNc1cc(-c2ccc3cc(C#N)cnn23)ncc1-c1nnc(N2CCN(C3CCN(C(=O)Cc4ccc5c(c4)CN(C4CCC(=O)NC4=O)C5=O)CC3)CC2)s1 (centres unmarked)	111
CNc1cc(-c2ccc3cc(C#N)cnn23)ncc1-c1nnc(N2CC3(CCN(C(=O)C4CCN(c5ccc6c(c5)C(=O)N(C5CCC(=O)NC5=O)C6=O)CC4)CC3)C2)s1 (centres unmarked)	105
CNc1cc(-c2ccc3cc(C#N)cnn23)ncc1-c1nnc(N2CC3CCC(C2)N3C2CCN(Cc3ccc4c(c3)C(=O)N(C3CCC(=O)NC3=O)C4=O)CC2)s1 (centres unmarked)	100

###

- Measured target: UniProt:Q9NWZ3
- Procedure text: IRAK4 Degradation HiBiT Assay
- Setup conditions: Jurkat, read-out: Cellular IRAK4 HiBiT: Dmax, Table 4; HiBiT-tagged Jurkat cells, 4 hrs
Recorded metric: Dmax (%)

Compound	Measured target	Dmax / %
N#Cc1cnn2c(-c3cc(NC4CCOCC4)c(-c4nnc(C56CCC(NC(=O)CCOCCOCCOCCNc7cccc8c7C(=O)N(C7CCC(=O)NC7=O)C8=O)(CC5)CC6)s4)cn3)ccc2c1 (stereo not drawn)	UniProt:Q9NWZ3	71
Cc1ncsc1-c1ccc(CNC(=O)[C@@H]2C[C@@H](O)CN2C(=O)[C@@H](NC(=O)C2(F)CC2)C(C)(C)C)c(OCCOCCOCCOCCC(=O)N2CCN(c3nnc(-c4cnc(-c5ccc6cc(C#N)cnn56)cc4NC(C)C)s3)CC2)c1	UniProt:Q9NWZ3	111

P. CC(C)Nc1cc(-c2ccc3cc(C#N)cnn23)ncc1-c1nnc(N2CCN(CCC3CCN(c4ccc5c(c4)C(=O)N(C4CCC(=O)NC4=O)C5=O)CC3)CC2)s1 (stereo not drawn)
Q. CC(C)Nc1cc(-c2ccc3cc(C#N)cnn23)ncc1-c1nnc(N2CCN(C(=O)CCOCCNc3cccc4c3C(=O)N(C3CCC(=O)NC3=O)C4=O)CC2)s1 (stereo not drawn)
R. CNc1cc(-c2ccc3cc(C#N)cnn23)ncc1-c1nnc([C@H]2CC[C@H](NC(=O)CCCCCOc3cc(-c4scnc4C)ccc3CNC(=O)[C@@H]3C[C@@H](O)CN3C(=O)[C@@H](NC(=O)C3(F)CC3)C(C)(C)C)CC2)s1
## Task Arrange the 3 compounds by rising Dmax, starting with the smallest. Response format: the labels, sorted as the prompt asks.
## Result Q, P, R

###

- Measured target: IRAK4 (Homo sapiens (Human))
- Procedure text: IRAK4 Biochemical HTRF Kinase Assay
- Setup conditions: Table 4; read-out: IRAK4 HTRF biochemical: IC50
- Sequence (Q9NWZ3 whole entry, species assumed): as the sequence (Q9NWZ3 whole entry) above
pIC50: −log10 of the molar value.
Recorded metric: pIC50

The cases that follow already have their pIC50 on record.
Molecule	Measured target	pIC50
Cc1ncsc1-c1ccc([C@H](C)NC(=O)[C@@H]2C[C@@H](O)CN2C(=O)[C@@H](NC(=O)CCCCCCCCCC(=O)N2CCN(c3nnc(-c4cnc(-c5ccc6cc(C#N)cnn56)cc4NC(C)C)s3)CC2)C(C)(C)C)cc1	IRAK4 (Homo sapiens (Human))	7.98
CNc1cc(-c2ccc3cc(C#N)cnn23)ncc1-c1nnc([C@H]2CC[C@H](NC(=O)CCCCC(=O)N[C@H](C(=O)N3C[C@H](O)C[C@H]3C(=O)N[C@@H](C)c3ccc(-c4scnc4C)cc3)C(C)(C)C)CC2)s1	IRAK4 (Homo sapiens (Human))	8.54
CC(C)Nc1cc(-c2ccc3cc(C#N)cnn23)ncc1-c1nnc(N2CCN(CCCc3cccc4c3CN(C3CCC(=O)NC3=O)C4=O)CC2)s1 (stereo not drawn)	IRAK4 (Homo sapiens (Human))	9.10

P. CC(C)Nc1cc(-c2ccc3cc(C#N)cnn23)ncc1-c1nnc(N2CCN(C(=O)C3CCN(Cc4ccc5c(c4)C(=O)N(C4CCC(=O)NC4=O)C5=O)CC3)CC2)s1 (stereo not drawn)
Q. CC(C)Nc1cc(-c2ccc3cc(C#N)cnn23)ncc1-c1nnc(N2CCN(CC3CCN(c4ccc(C(=O)N(C)C5CCC(=O)NC5=O)cc4)CC3)CC2)s1 (stereo not drawn)
## Task Looking at recorded values for pIC50, does P or Q come in lower? Give the label of your selection.
## Result Q

A. CC(C)Nc1cc(-c2ccc3cc(C#N)cnn23)ncc1-c1nnc(N2CCN(CC3CCN(c4ccc(C(=O)NC5CCC(=O)NC5=O)nc4)CC3)CC2)s1 (stereo not drawn)
B. CNc1cc(-c2ccc3cc(C#N)cnn23)ncc1-c1nnc([C@H]2CC[C@H](NC(=O)CCCC(=O)N[C@H](C(=O)N3C[C@H](O)C[C@H]3C(=O)NCc3ccc(-c4scnc4C)cc3)C(C)(C)C)CC2)s1
## Task // max by pIC50 over [ A , B ] Give the label of your selection.
## Result B
